- study_target: EGFR del19 (Homo sapiens (Human), UniProt P00533, DEL746-750)
- Sequence (P00533 other isoform, or with tags, fused parts or gaps del 1-668/del 746-750 limits assumed): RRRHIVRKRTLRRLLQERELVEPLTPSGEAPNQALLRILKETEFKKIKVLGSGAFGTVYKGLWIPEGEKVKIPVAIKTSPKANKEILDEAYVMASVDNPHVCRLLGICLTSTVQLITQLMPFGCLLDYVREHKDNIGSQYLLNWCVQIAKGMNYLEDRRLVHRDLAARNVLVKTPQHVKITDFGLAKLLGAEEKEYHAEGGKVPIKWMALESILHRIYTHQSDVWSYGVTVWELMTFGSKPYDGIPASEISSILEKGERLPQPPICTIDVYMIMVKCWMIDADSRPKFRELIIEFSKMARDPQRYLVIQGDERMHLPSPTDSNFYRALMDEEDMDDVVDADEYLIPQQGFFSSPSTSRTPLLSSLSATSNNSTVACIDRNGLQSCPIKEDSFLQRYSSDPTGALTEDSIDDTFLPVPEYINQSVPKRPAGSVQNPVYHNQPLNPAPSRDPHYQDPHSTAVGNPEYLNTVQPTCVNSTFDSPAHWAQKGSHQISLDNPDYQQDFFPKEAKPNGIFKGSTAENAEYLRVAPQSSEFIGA
- protocol_details: HTRF inhibitory activity against EGFR mutant enzyme (EGFR del19)
- experimental_parameters: recombinant enzyme, 37° C. for 2 hours
test_readout: IC50

Some compounds with known IC50 results, for comparison:
C=CC(=O)Nc1cc(Nc2ncc(C(=O)OC)c(Nc3cccc4c3N(S(C)(=O)=O)CCC4)n2)c(OC)cc1N(C)CCN(C)C [Example 51]: < 1 nM
C=CC(=O)Nc1cc(Nc2ncc(F)c(Nc3ccccc3NS(C)(=O)=O)n2)c(OC)cc1N(C)CCN(C)C [Example 11]: < 1 nM
C=CC(=O)Nc1cc(Nc2ncc(Cl)c(Nc3cccc4c3N(S(=O)(=O)CC)CC4)n2)c(OC)cc1N(C)CCN1CCCC1 [Example 75]: < 1 nM
C=CC(=O)Nc1cc(Nc2ncc(Cl)c(Nc3cccc4c3N(S(C)(=O)=O)CC4)n2)c(OC)cc1N1CCC(N2CCN(C)CC2)CC1 [Example 59]: < 1 nM
C=CC(=O)Nc1cc(Nc2ncc(Cl)c(Nc3cccc4c3N(C(C)=O)CC4)n2)c(OC)cc1N(C)CCNC [Example 92]: < 1 nM
COc1cc(N2CCOCC2)c(NC(=O)/C=C/CN(C)C)cc1Nc1ncc(Cl)c(Nc2ccccc2NS(C)(=O)=O)n1 [Example 26]: 4 nM
C=CC(=O)Nc1cc(Nc2ncc(Cl)c(Nc3cccc4c3N(S(=O)(=O)CC)CC4)n2)c(OC)cc1N(C)CCN1CCC1 [Example 81]: < 1 nM
C=CC(=O)Nc1cc(Nc2ncc(Cl)c(Nc3ccccc3NS(C)(=O)=O)n2)c(OC)cc1OCCN1CCCC1 [Example 22]: < 1 nM

(Q) Recorded IC50 for C=CC(=O)Nc1cc(Nc2ncc(C)c(Nc3ccccc3NS(=O)(=O)CC)n2)c(OC)cc1N(C)CCN(C)C [Example 19] , please?
(A) < 1 nM

----------
- study_target: EGFR A763_Y764insFHEA (Homo sapiens (Human), UniProt P00533, INS763FHEA)
- Sequence (P00533 other isoform, or with tags, fused parts or gaps del 1-694/ins FHEA behind 763 limits assumed): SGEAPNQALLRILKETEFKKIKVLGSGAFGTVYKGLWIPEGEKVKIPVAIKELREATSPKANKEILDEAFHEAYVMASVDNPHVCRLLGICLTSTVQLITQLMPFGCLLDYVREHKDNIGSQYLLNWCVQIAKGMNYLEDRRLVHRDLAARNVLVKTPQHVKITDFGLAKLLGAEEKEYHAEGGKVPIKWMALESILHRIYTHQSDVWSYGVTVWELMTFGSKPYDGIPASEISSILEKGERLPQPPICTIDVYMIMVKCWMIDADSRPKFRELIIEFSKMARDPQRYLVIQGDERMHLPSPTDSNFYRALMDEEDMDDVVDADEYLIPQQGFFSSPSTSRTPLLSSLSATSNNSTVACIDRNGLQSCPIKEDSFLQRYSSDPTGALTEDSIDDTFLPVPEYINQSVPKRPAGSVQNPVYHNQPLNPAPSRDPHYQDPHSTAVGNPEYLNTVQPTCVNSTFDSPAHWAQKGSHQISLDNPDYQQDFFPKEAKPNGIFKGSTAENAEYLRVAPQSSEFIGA
- protocol_details: HTRF inhibitory activity against EGFR mutant enzyme (EGFR A763_Y764insFHEA)
- experimental_parameters: recombinant enzyme, 37° C. for 2 hours
pIC50: −log10 of the molar value.
The entries below come with measured pIC50 values attached.

C=CC(=O)Nc1cc(Nc2ncc(Cl)c(Nc3cccc4c3N(S(C)(=O)=O)CC4)n2)c(OC)cc1N1CCC(N2CCN(C)CC2)CC1 [Example 59]: > 9.00

(Q) Recorded pIC50 for C=CC(=O)Nc1cc(Nc2ncc(Cl)c(Nc3cccc(CC)c3NS(=O)(=O)CC)n2)c(OC)cc1N(C)CCN(C)C [Example 42] , please?
(A) > 9.00

(Q) Recorded pIC50 for C=CC(=O)Nc1cc(Nc2ncc(Cl)c(Nc3cccc4c3N(S(=O)(=O)CC)CC4)n2)c(OC)cc1N(C)CCN(C)C [Example 56] , please?
(A) > 9.00

----------
The entries below come with measured pIC50 values attached.
- study_target: EGFR del19 (Homo sapiens (Human), UniProt P00533, DEL746-750)
- protocol_details: HTRF inhibitory activity against EGFR mutant enzyme (EGFR del19)
- experimental_parameters: recombinant enzyme, 37° C. for 2 hours
Reminder that pIC50 is minus the log10 of a molar concentration.

C=CC(=O)Nc1cc(Nc2ncc(Cl)c(Nc3ccc(C)c(C)c3N(C)C(C)=O)n2)c(OC)cc1N(C)CCN(C)C: 8.52

(Q) Form: Entry = C=CC(=O)Nc1cc(Nc2ncc(Cl)c(Nc3cccc4c3N(C(C)=O)CCC4)n2)c(OC)cc1N(C)CCN(C)C | System = EGFR del19 (Homo sapiens (Human), UniProt P00533, DEL746-750) | pIC50 = ____
(A) 8.70

----------
The entries below come with measured pIC50 values attached.
- study_target: HER2 A775_G776insYVMA (Homo sapiens (Human), UniProt P04626, INS775YVMA)
- Sequence (P04626 other isoform, or with tags, fused parts or gaps del 1-675/ins YVMA behind 775 limits assumed): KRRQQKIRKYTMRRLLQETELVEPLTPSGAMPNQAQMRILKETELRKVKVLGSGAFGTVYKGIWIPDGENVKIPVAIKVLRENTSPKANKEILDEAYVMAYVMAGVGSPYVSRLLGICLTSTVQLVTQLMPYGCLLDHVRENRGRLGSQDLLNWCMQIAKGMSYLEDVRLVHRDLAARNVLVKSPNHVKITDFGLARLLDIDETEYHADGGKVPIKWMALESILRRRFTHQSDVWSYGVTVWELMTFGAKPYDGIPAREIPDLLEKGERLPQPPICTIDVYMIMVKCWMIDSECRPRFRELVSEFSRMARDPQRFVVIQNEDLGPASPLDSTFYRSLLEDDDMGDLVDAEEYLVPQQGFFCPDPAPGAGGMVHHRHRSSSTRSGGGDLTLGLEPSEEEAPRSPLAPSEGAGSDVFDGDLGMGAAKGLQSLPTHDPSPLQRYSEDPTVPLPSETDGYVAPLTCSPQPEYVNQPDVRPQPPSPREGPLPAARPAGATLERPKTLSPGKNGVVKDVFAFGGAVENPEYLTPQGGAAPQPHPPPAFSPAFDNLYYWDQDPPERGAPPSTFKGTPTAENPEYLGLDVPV
- protocol_details: HTRF inhibitory activity against HER2 mutant enzyme
- experimental_parameters: recombinant enzyme, 37° C. for 2 hours
Reminder that pIC50 is minus the log10 of a molar concentration.

C=CC(=O)Nc1cc(Nc2ncc(Cl)c(Nc3cccc4c3N(S(C)(=O)=O)CCC4)n2)c(OC)cc1N(C)CCN1CCOCC1: 8.00

(Q) Recorded pIC50 for C=CC(=O)Nc1cc(Nc2ncc(Cl)c(Nc3cccc4c3N(S(C)(=O)=O)CCC4)n2)c(OC)cc1N1CCC(N(C)C)CC1 , please?
(A) 7.22

(Q) Recorded pIC50 for C=CC(=O)Nc1cc(Nc2ncc(Cl)c(Nc3cccc4c3N(S(C)(=O)=O)CCC4)n2)c(OC)cc1N(C)CCN(C)C , please?
(A) 8.22

(Q) Recorded pIC50 for C=CC(=O)Nc1cc(Nc2ncc(Cl)c(Nc3ccc(C)c(C)c3NC(C)=O)n2)c(OC)cc1N(C)CCN(C)C , please?
(A) 7.28

----------
- study_target: HER2 A775_G776insYVMA (Homo sapiens (Human), UniProt P04626, INS775YVMA)
- protocol_details: HTRF inhibitory activity against HER2 mutant enzyme
- Format: biochemical
- experimental_parameters: recombinant enzyme, 37° C. for 2 hours
- Experimental: The activity of the compounds of the present invention against HER mutant enzymes was measured using the HTRF system purchased by Cisbio as follows. […] The enzyme reaction begins by first mixing component 1 and component 2 and then adding component 3 thereto. […] The measured values at 7 compound concentrations were analyzed using the Prism program (version 5.01, Graphpad Software, Inc.), and the IC50 (μM) values, which are measures of the compounds' inhibitory ability, were calculated.
pIC50: −log10 of the molar value.
Where pIC50 equals or exceeds 8, the correct label is Y; where it does not, the label is N.

Here are 6 molecules together with their reported answers.
C=CC(=O)Nc1cc(Nc2ncc(Cl)c(Nc3cccc4c3N(S(C)(=O)=O)CC4)n2)c(OC)cc1N(C)CCN1CCOCC1: Y
C=CC(=O)Nc1cc(Nc2ncc(C)c(Nc3ccccc3NS(=O)(=O)CCC)n2)c(OC)cc1N(C)CCN(C)C: N
C=CC(=O)Nc1cc(Nc2ncc(Cl)c(Nc3ccccc3N(CC)S(C)(=O)=O)n2)c(OC)cc1N(C)CCN(C)C: Y
C=CC(=O)Nc1cc(Nc2ncc(Cl)c(Nc3ccccc3N(C)S(=O)(=O)CC)n2)c(OC)cc1N(C)CCN(C)C: Y
C=CC(=O)Nc1cc(Nc2ncc(C)c(Nc3ccccc3NS(=O)(=O)CC)n2)c(OC)cc1N(C)CCN(C)C: N
C=CC(=O)Nc1cc(Nc2ncc(Cl)c(Nc3cccc(C)c3N(C)C(C)=O)n2)c(OC)cc1N(C)CCN(C)C: N

Please look at the following molecule next.
(Q) Reported pIC50 reaches at least 8 for C=CC(=O)Nc1cc(Nc2ncc(Cl)c(Nc3cccc4c3N(S(C)(=O)=O)CC4)n2)c(OC)cc1OCCN1CCOCC1 ?
(A) Y

----------
- study_target: EGFR A763_Y764insFHEA (Homo sapiens (Human), UniProt P00533, INS763FHEA)
- protocol_details: HTRF inhibitory activity against EGFR mutant enzyme (EGFR A763_Y764insFHEA)
- experimental_parameters: recombinant enzyme, 37° C. for 2 hours
- Procedure: The activity of the compounds of the present invention against EGFR mutant enzymes was measured using the HTRF system purchased from Cisbio as follows. […] The enzyme reaction begins by first mixing component 1 and component 2 and then adding component 3 thereto. […] Finally, the ratio of fluorescence values at 615 nm and 665 nm was measured using Perkin-Elmer's Envision instrument to calculate enzyme activity and confirm the inhibitory ability of the compounds. […]
The entries below come with measured IC50 values attached.

C=CC(=O)Nc1cc(Nc2ncc(Cl)c(Nc3ccccc3N(CC)S(=O)(=O)CC)n2)c(OC)cc1N(C)CCN(C)C: < 1 nM
C=CC(=O)Nc1cc(Nc2ncc(Cl)c(Nc3ccc(C)cc3NS(C)(=O)=O)n2)c(OC)cc1N(C)CCN(C)C: < 1 nM

Could you now consider this next compound?
(Q) Recorded IC50 for C=CC(=O)Nc1cc(Nc2ncc(C(=O)OC)c(Nc3cccc4c3N(S(C)(=O)=O)CCC4)n2)c(OC)cc1N(C)CCN(C)C , please?
(A) < 1 nM

----------
- study_target: EGFR del19 (Homo sapiens (Human), UniProt P00533, DEL746-750)
- protocol_details: HTRF inhibitory activity against EGFR mutant enzyme (EGFR del19)
- experimental_parameters: recombinant enzyme, 37° C. for 2 hours
test_readout: IC50

C=CC(=O)Nc1cc(Nc2ncc(Cl)c(Nc3cccc4c3N(S(C)(=O)=O)CCC4)n2)c(OC)cc1N(C)CCNC: 3 nM
C=CC(=O)Nc1cc(Nc2ncc(F)c(Nc3ccccc3NS(=O)(=O)c3ccccc3)n2)c(OC)cc1N(C)CCN(C)C: 1 nM
C=CC(=O)Nc1cc(Nc2ncc(Cl)c(Nc3ccc(C)cc3N(C)S(C)(=O)=O)n2)c(OC)cc1N(C)CCN1CCC1: < 1 nM
C=CC(=O)Nc1cc(Nc2ncc(Cl)c(Nc3cccc(C)c3N(CC)S(C)(=O)=O)n2)c(OC)cc1N(C)CCN(C)C: < 1 nM
C=CC(=O)Nc1cc(Nc2ncc(Cl)c(Nc3cccc4c3N(S(C)(=O)=O)CC4)n2)c(OC)cc1N(C)CCN1CCN(C)CC1: < 1 nM

(Q) Recorded IC50 for C=CC(=O)Nc1cc(Nc2ncc(Cl)c(Nc3ccccc3N3CCCS3(=O)=O)n2)c(OC)cc1N(C)CCN(C)C , please?
(A) < 1 nM

(Q) Recorded IC50 for C=CC(=O)Nc1cc(Nc2ncc(C#N)c(Nc3cccc4c3N(C(C)=O)CC4)n2)c(OC)cc1N(C)CCN(C)C , please?
(A) 1 nM

(Q) Recorded IC50 for C=CC(=O)Nc1cc(Nc2ncc(Cl)c(Nc3ccccc3NS(C)(=O)=O)n2)c(OC)cc1N(C)CCNC(C)C , please?
(A) < 1 nM

(Q) Recorded IC50 for C=CC(=O)Nc1cc(Nc2ncc(Cl)c(Nc3cccc4c3N(S(C)(=O)=O)CC4)n2)c(OC)cc1OCCN1CCCCC1 , please?
(A) < 1 nM

(Q) Recorded IC50 for C=C(F)C(=O)Nc1cc(Nc2ncc(Cl)c(Nc3cccc4c3N(S(C)(=O)=O)CC4)n2)c(OC)cc1N(C)CCN(C)C , please?
(A) < 1 nM
